The entries below are paired with their reported IC50.
Tested on: T1, cynomolgus IgE (recombinant chimaeric D12 variable region / cynomolgus IgE constant region) (cynomolgus monkey (constant region))
T1 construct: also called cyno IgE; cynomolgus IgE (in house HEK-EBNA derived)
T1 sequence (heavy, as listed by the source limits assumed, chain 1 of 2): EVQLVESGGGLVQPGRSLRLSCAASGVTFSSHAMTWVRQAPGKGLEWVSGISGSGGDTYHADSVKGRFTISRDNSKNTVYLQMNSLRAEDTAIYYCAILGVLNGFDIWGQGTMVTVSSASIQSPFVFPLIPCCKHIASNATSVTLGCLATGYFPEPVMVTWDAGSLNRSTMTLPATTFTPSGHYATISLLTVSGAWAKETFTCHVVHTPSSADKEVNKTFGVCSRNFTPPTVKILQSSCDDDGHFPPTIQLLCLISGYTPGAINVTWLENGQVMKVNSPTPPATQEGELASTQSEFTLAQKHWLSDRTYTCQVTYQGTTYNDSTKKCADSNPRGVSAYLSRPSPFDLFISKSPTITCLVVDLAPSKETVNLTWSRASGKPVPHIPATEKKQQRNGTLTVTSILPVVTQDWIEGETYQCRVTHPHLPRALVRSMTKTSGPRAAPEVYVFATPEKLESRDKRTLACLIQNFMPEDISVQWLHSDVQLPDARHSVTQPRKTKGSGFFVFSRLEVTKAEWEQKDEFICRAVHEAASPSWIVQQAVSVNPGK
T1 sequence (light, as listed by the source limits assumed, chain 2 of 2): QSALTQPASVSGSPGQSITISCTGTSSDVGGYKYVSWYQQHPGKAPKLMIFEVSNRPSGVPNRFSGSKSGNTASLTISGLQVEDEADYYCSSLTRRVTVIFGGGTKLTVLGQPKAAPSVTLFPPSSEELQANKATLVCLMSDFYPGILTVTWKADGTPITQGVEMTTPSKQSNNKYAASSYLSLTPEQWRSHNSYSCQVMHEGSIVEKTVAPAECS
Protocol notes: HTRF receptor-ligand competition, scFv titrated; Eu-cryptate cynomolgus IgE binding to human FcεRI-Fc; geomean
Parameter: IC50 (nM)

Binder | Measure unit | Endpoint value
Antibody 24 (scFv) (scFv, V domains shown, purified scFv) VH: EVQLLESGGGLVQPGGSLRLSCAAPGFTFSSYAMSWVRQAPGKGLEWVSAISGGSGGRTYYADSVKGRFTISRDNSKNTLYLQMNSLRAEDTAVYYCARHIAVAGTRGFDYWGRGTLVTVPS VL: SFVLTQPPSVSVSPGQTASITCSGDKLGDTYASWYRQRSGQSPVLVIYQDDKRPSGIPERFSGSNSGNTATLTISGTHTMDEADYYCLAWDTRTSGAVFGGGTKLTVL | nM | 196
Antibody 2 (scFv) (scFv, V domains shown, purified scFv) VH: EVQLLESGGGLVQPGGSLRLSCAASGFTFSSYAMSWVRQAPGKGLEWVSAISGSGGRTYYADSVKGRFTISRDNSKNTLYLQMNSLRAEDTAVYYCARHIAVAGTRGFDYWGRGTLVTVSS VL: SYVLTQPPSVSVSPGQTASITCSGDKLGDTYASWYRQRSGQSPVLVIYQDDRRPSGIPERFSGSNSGNTATLTISGTHTMDEADYYCLAWDTRTSGAVFGGGTKLTVL | nM | 398
Antibody 9 (scFv) (scFv, V domains shown, purified scFv) VH: EVQLLESGGGLVQPGGSLRLSCAASGFTFSSYAMSWVRQAPGKGLEWVSAISGGSGGRTYYADSVKGRFTISRDNSKNTLYLQMNSLRAEDTAVYYCARHIAVAGTRGFDYWGRGTLVTVSS VL: SFVLSQPPSVSVSPGQTASITCSGDKLGDTYASWYRQRSGQSPVLVIYQDDKRPSGIPERFSGSNSGNTATLTISGTHTMDEADYYCLAWDTRTSGAVFGGGTKLTVL | nM | 138

Data origin, for the record: patent US20110212084A1
